For each record, write down the corresponding pIC50.
- subject_of_test: Adenosine kinase (Homo sapiens, UniProt P55263)
- Sequence (P55263 whole entry): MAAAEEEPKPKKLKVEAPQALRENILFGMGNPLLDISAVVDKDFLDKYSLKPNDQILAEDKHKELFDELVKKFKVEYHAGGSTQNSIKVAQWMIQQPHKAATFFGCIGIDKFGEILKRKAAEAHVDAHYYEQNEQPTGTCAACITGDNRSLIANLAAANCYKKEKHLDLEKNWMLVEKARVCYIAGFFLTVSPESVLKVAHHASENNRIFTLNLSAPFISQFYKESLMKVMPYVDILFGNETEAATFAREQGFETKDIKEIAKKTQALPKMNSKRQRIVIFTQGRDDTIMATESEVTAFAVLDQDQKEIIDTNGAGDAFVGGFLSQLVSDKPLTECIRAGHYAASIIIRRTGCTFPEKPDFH
pIC50: −log10 of the molar value.

| compound_structure_string | pIC50 |
| --- | --- |
| Nc1ncnc2c1c(-c1cccc3c1Oc1ccccc1S3)cn2[C@@H]1O[C@H](CO)[C@@H](O)[C@H]1O | < 4.70 |
| CC(C)c1cccc(-c2cn([C@@H]3O[C@H](CO)[C@@H](O)[C@H]3O)c3ncnc(N)c23)c1 | 5.48 |

Working through the 8 compounds below one at a time, give pIC50 for each.
1. Nc1ncnc2c1c(-c1cccc3c1oc1ccccc13)cn2[C@@H]1O[C@H](CO)[C@@H](O)[C@H]1O
2. Nc1ncnc2c1c(-c1ccc(C(F)(F)F)cc1)cn2[C@@H]1O[C@H](CO)[C@@H](O)[C@H]1O
3. Nc1ncnc2c1c(-c1ccc(COc3cccc4ccccc34)cc1)cn2[C@@H]1O[C@H](CO)[C@@H](O)[C@H]1O
4. Nc1ncnc2c1c(-c1ccc(-c3ccc4ccccc4c3)cc1)cn2[C@@H]1O[C@H](CO)[C@@H](O)[C@H]1O
5. CC(C)Oc1ccc(-c2cn([C@@H]3O[C@H](CO)[C@@H](O)[C@H]3O)c3ncnc(N)c23)cc1
6. Nc1ncnc2c1c(-c1cc3ccccc3c3ccccc13)cn2[C@@H]1O[C@H](CO)[C@@H](O)[C@H]1O
7. CC(C)c1ccc(-c2cn([C@@H]3O[C@H](CO)[C@@H](O)[C@H]3O)c3ncnc(N)c23)cc1
8. Nc1ncnc2c1c(-c1ncc[nH]1)cn2[C@@H]1O[C@H](CO)[C@@H](O)[C@H]1O

1: < 5.00; 2: < 5.00; 3: < 4.70; 4: < 4.70; 5: < 5.00; 6: < 5.00; 7: < 4.70; 8: < 4.70

###

Observed IC50, system Adenosine kinase (Homo sapiens, UniProt P55263).

| compound_structure_string | measure_name | obs_value |
| --- | --- | --- |
| COc1ccc(-c2cn([C@@H]3O[C@H](CO)[C@@H](O)[C@H]3O)c3ncnc(N)c23)cc1 | IC50 | > 5 µM |
| Nc1ncnc2c1c(-c1ccc3c(c1)OCO3)cn2[C@@H]1O[C@H](CO)[C@@H](O)[C@H]1O | IC50 | > 10 µM |

Working through the 6 compounds below one at a time, give IC50 for each.
1. Nc1ncnc2c1c(-c1nccs1)cn2[C@@H]1O[C@H](CO)[C@@H](O)[C@H]1O
2. Nc1ncnc2c1c(-c1ccc(-c3ccccc3)cc1)cn2[C@@H]1O[C@H](CO)[C@@H](O)[C@H]1O
3. Nc1ncnc2c1c(-c1cn[nH]c1)cn2[C@@H]1O[C@H](CO)[C@@H](O)[C@H]1O
4. CC(C)(C)c1ccc(-c2cn([C@@H]3O[C@H](CO)[C@@H](O)[C@H]3O)c3ncnc(N)c23)cc1
5. Nc1ncnc2c1c(/C=C/c1ccccc1)cn2[C@@H]1O[C@H](CO)[C@@H](O)[C@H]1O
6. Cc1ccc(-c2cn([C@@H]3O[C@H](CO)[C@@H](O)[C@H]3O)c3ncnc(N)c23)cc1C

1. 2.3 µM
2. > 20 µM
3. > 10 µM
4. > 20 µM
5. > 10 µM
6. > 20 µM
